target: HIV-1 reverse transcriptase (Human immunodeficiency virus type 1 group M subtype B, UniProt P04585); construct: fixed-time assay for HIV-1 reverse transcriptase RNA dependent DNA polymerase activity; RT was purchased from Calbiochem; purchased Calbiochem CAL382129-500; assay: HIV-1 in vitro reverse transcriptase activity (fixed-time RNA dependent DNA polymerase assay); assay type: biochemical; details: residual RT activity, compound at 10 μM; RT activity without compound set at 100%
Checkbox rule: Relative (%) RT activity in vitro (compound added at 10 μM) lower than 30% = Yes; Relative (%) RT activity in vitro (compound added at 10 μM) not lower than 30% = No.

Reference set (8 entries):
>>> print(df.to_string())
                                   compound  category_label
0  CCc1c(C)[nH]c(=O)c(C(=O)OCCN(CC)CC)c1OC1CC(C)CC(C)C1 (stereo not shown)              No
1  CCc1c(C)[nH]c(=O)c(CN=[N+]=[N-])c1OC1CC(C)CC(C)C1 (stereo not shown)             Yes
2  CCc1c(C)[nH]c(=O)c(CSCCO)c1OC1CC(C)CC(C)C1 (stereo not shown)             Yes
3  Cc1ccnc2c1NC(=O)c1cccnc1N2C1CC1 [Nevirapine, reference compound]             Yes
4  CCOC(=O)c1c(OC(=O)C=C(C)C)c(CC)c(C)[nH]c1=O              No
5  CCc1c(C)[nH]c(=O)c(C)c1OC1CC(C)CC(C)C1 (stereo not shown)             Yes
6  CCc1c(C)[nH]c(=O)c(N(C)C)c1OC1CC(C)CC(C)C1 (stereo not shown)             Yes
7  CCOC(=O)c1c(OC2CCCC(C)C2)c(CC)c(C)[nH]c1=O (stereo not shown)             Yes

input: Please state whether Relative (%) RT activity in vitro (compound added at 10 μM) is below 30% for CCOC(=O)c1c(OC2CCCCCC2)c(CC)c(C)[nH]c1=O
output: No

input: Please state whether Relative (%) RT activity in vitro (compound added at 10 μM) is below 30% for CCOC(=O)c1c(OC2CCC(CC)CC2)c(CC)c(C)[nH]c1=O (stereo not shown)
output: No

###

Reported EC50 values follow for various compounds
test system: HIV-1 mutant Cys188RT in MT4 cells; assay: Anti-HIV assay on MT4 cells, Cys188RT mutant; type: cell-based; conditions: Human immunodeficiency virus 1, MT4, read-out: EC50 Cys188RT MT4
I only need the number, in nM, no unit after it.

>>> print(df.to_string())
                                   compound                           tested_on  recorded_endpoint  unit_label  result_value
0  CCc1c(C)[nH]c(=O)c([N+](=O)[O-])c1OC1CC(C)CC(C)C1 (stereo not shown)  HIV-1 mutant Cys188RT in MT4 cells               EC50          nM            43
1  O=C1Nc2ccc(Cl)cc2[C@@](C#CC2CC2)(C(F)(F)F)O1 [Efavirenz, reference compound]  HIV-1 mutant Cys188RT in MT4 cells               EC50          nM             1

# evaluate next
input: Report measured EC50; entry is CCc1c(C)[nH]c(=O)c(N(C)C)c1OC1CC(C)CC(C)C1 (stereo not shown)
output: 6

###

System: HIV-1 mutant Ile108RT in MT4 cells
Assay: Anti-HIV assay on MT4 cells, Ile108RT mutant
Assay type: cell-based
Settings: MT4, mutant Ile108RT; read-out: EC50 Ile108RT MT4
Experimental: In order to introduce mutation(s) at the level of the pol gene coding for the RT in the pNL4-3 plasmid containing the complete viral genome (Adachi et al., 1986. J. Virol., Vol. 59 p 284-291) we used the “Quick change mutagenesis kit” (Stratagene). […] The absorbance was measured on a Benchmark™ Microplate Reader (Biorad) (λ=490 nm) and compared with 12 cell control replicates (nor virus nor drug added) and 12 virus control wells (no drug added). […]
recorded endpoint: EC50 (µM)
I only need the number, in µM, no unit after it.

                                   compound  result_value
0  CCc1c(C)[nH]c(=O)c(CN=[N+]=[N-])c1OC1CC(C)CC(C)C1 (centres unmarked)         0.008

input: Report measured EC50; entry is CCc1c(C)[nH]c(=O)c(CSC(C)=O)c1OC1CC(C)CC(C)C1 (centres unmarked)
output: 12

###

System: HIV-1 mutant Cys181RT in P4 cells
Experiment: Anti-HIV assay on P4 cells, Cys181RT mutant
Type: cell-based
Conditions: P4, mutant Cys181RT; read-out: EC50 Cys181RT P4
Description: In order to introduce mutation(s) at the level of the pol gene coding for the RT in the pNL4-3 plasmid containing the complete viral genome (Adachi et al., 1986. J. Virol., Vol. 59 p 284-291) we used the “Quick change mutagenesis kit” (Stratagene). […] The absorbance was measured on a Benchmark™ Microplate Reader (Biorad) (λ=570 nm) and compared with 12 cell control replicates (no virus or drug added) and 12 virus control wells (no drug added). […]
Reported EC50 values follow for various molecules
I only need the number, in nM, no unit after it.

>>> print(df.to_string())
                                   molecule  recorded_endpoint  unit_label  result_value
0  CCOC(=O)c1c(OC2CC(C)CC(C)C2)c(CC)c(C)[nH]c1=O (single isomer, unassigned)               EC50          nM          1970
1  CCc1c(C)[nH]c(=O)c(CSC(C)=O)c1OC1CC(C)CC(C)C1 (stereo not shown)               EC50          nM            87
2  CCc1c(C)[nH]c(=O)c(CN=[N+]=[N-])c1OC1CC(C)CC(C)C1 (stereo not shown)               EC50          nM           108

input: Report measured EC50; entry is CCc1c(C)[nH]c(=O)c(CO)c1OC1CC(C)CC(C)C1 (stereo not shown)
output: 496

###

Reported pEC50 values follow for various compounds
test system: HIV-1 mutant Ile108RT in TZM-bl cells; assay: Anti-HIV assay on TZM-bl cells, Ile108RT mutant; type: cell-based; conditions: Human immunodeficiency virus 1, TZM-bl, read-out: EC50 Ile108RT TZM-bl
Please note pEC50 is a logarithmic value: minus log10 of concentration in mol/L. Answer with that number alone.

In [3]: df
Out[3]:
                                   compound  result_value
0  Cc1ccnc2c1NC(=O)c1cccnc1N2C1CC1 [Nevirapine, reference compound]          7.04

# evaluate next
input: Report measured pEC50; entry is CCc1c(C)[nH]c(=O)c(N(C)C)c1OC1CC(C)CC(C)C1 (stereo not shown) [Z150]
output: 8.40

###

Reported melting point values follow for various molecules
I only need the number, in °C, no unit after it.

In [3]: df
Out[3]:
                                   molecule  recorded_endpoint  unit_label  result_value
0  CCOC(=O)c1c(OC(=O)C=C(C)C)c(CC)c(C)[nH]c1=O      melting point          °C           166
1  CCc1c(C)[nH]c(=O)c(COC(=O)CCl)c1OC1CCCCCC1      melting point          °C           123
2  CCOC(=O)c1c(OC2CC(C)CC(C)C2)c(CC)c(C)[nH]c1=O (stereo not shown)      melting point          °C           108

# evaluate next
input: Report measured melting point; entry is CCc1c(C)[nH]c(=O)c(CO)c1OC1CCCCCC1
output: 146

###

system: HIV-1 mutant Cys181RT in TZM-bl cells; assay: Anti-HIV assay on TZM-bl cells, Cys181RT mutant; assay type: cell-based; conditions: TZM-bl, mutant Cys181RT; read-out: EC50 Cys181RT TZM-bl
recorded endpoint: EC50

input: Report measured EC50; entry is CCc1c(C)[nH]c(=O)c(CC)c1OC1CC(C)CC(C)C1 (stereo not drawn)
output: 7 nM

input: Report measured EC50; entry is CCc1c(C)[nH]c(=O)c(CSC(C)=O)c1OC1CC(C)CC(C)C1 (stereo not drawn)
output: 411 nM

input: Report measured EC50; entry is CCc1c(C)[nH]c(=O)c(CO)c1OC1CC(C)CC(C)C1 (stereo not drawn)
output: 3200 nM

input: Report measured EC50; entry is CCc1c(C)[nH]c(=O)c(CN=[N+]=[N-])c1OC1CC(C)CC(C)C1 (stereo not drawn)
output: 83 nM

input: Report measured EC50; entry is CCOC(=O)c1c(OC2CC(C)CC(C)C2)c(CC)c(C)[nH]c1=O (single isomer, unassigned)
output: 2540 nM

input: Report measured EC50; entry is CCc1c(C)[nH]c(=O)c(C)c1OC1CC(C)CC(C)C1 (stereo not drawn)
output: 288 nM

Values compiled from patent US20070275953A1.
